tested on: OVCAR-8; assay: NCI tumour cell line growth inhibition, 48 h
Active and inactive are the calls of the source. Rule as the data show it: active = GI50 up to about 1.1 µM and inactive = higher.
Exercise: for every item that follows, state its recorded GI50.

Give a short answer stating reported GI50 for CSc1ccc2c(cc1=O)C(NC(=O)c1ccccc1)CCc1cc(O)c(O)c(O)c1-2 (stereo not given) .
37.4 µM (inactive)

Give a short answer stating reported GI50 for "NC1=NCCN1CC(=O)O" .
> 1000 µM (inactive)

Give a short answer stating reported GI50 for "COc1cc2cc3c4c(cc(OC)c(OC)c4c2cc1OC)CCN3C(=O)OCCBr" .
> 100 µM (inactive)

Give a short answer stating reported GI50 for "[O-][n+]1c2cc(CBr)c(CBr)cc2[n+]([O-])c2c(O)cccc21" .
1.82 µM (inactive)

Give a short answer stating reported GI50 for "Cc1ccc(C(=N)c2ccccc2Cc2cccc3ccccc23)c2ccccc12" .
> 100 µM (inactive)

Give a short answer stating reported GI50 for O=C(CCCCCCC(=O)Nc1cccnc1)NO [PYROXAMIDE] .
1.78 µM (inactive)

Give a short answer stating reported GI50 for "O=C(O)[C@@H]1C[C@@H](O)CN1C(=O)OCc1ccccc1" .
> 100 µM (inactive)

Give a short answer stating reported GI50 for OC1(c2ccc3ccccc3c2)c2ccc3ccccc3c2C2=NCCN21 (stereo not given) .
23.3 µM (inactive)

Give a short answer stating reported GI50 for C[C@]12CCC(=O)C=C1CC[C@@H]1[C@@H]2[C@@H](O)C[C@@]2(C)[C@H]1CC[C@]2(O)C(=O)COC(=O)CCC1CCCC1 [HYDROCORTISONE CYPIONATE] .
> 100 µM (inactive)

Give a short answer stating reported GI50 for COC(=O)/C(=N\NC(C)(C)C)C(C(=O)C(=O)Nc1cc(C)ccc1C)c1nc2ccccc2nc1O (stereo not given) .
> 100 µM (inactive)

Give a short answer stating reported GI50 for CC(NC(=O)C(CC(=O)OCc1ccccc1)NC(=O)OCc1ccccc1)c1ccccc1 (stereo not given) .
> 100 µM (inactive)

Give a short answer stating reported GI50 for "O=Cc1c2c(cc3c1CC1(C3)Cc3cc4c(c(C=O)c3C1)CCCC4)CCCC2" .
23.5 µM (inactive)

Give a short answer stating reported GI50 for "OC(C#Cc1ccccc1)(c1ccccc1)c1ccccc1" .
63.5 µM (inactive)

Give a short answer stating reported GI50 for "COc1ccccc1/C=C(\NC(=O)c1ccccc1)c1nc2ccc(Cl)cc2[nH]1" .
22.8 µM (inactive)

Give a short answer stating reported GI50 for "C/C(=N\N=C(N)N)c1c(C(=O)OCCCCCCOC(=O)c2nc3sccn3c2/C(C)=N/N=C(N)N)nc2sccn12" .
42.9 µM (inactive)

Give a short answer stating reported GI50 for "CCCCCCCCCCCCCCCCS(=O)(=O)c1ccc(NN)cc1" .
6.53 µM (inactive)

Give a short answer stating reported GI50 for "O=c1[nH]c2ccc(CC(=S)N3CCCCC3)cc2s1" .
> 100 µM (inactive)

Give a short answer stating reported GI50 for "N#Cc1c(Cl)cccc1Oc1ccc(S(=O)(=O)N/C(=N\O)Nc2ccc(Cl)cc2)cc1" .
18 µM (inactive)

Give a short answer stating reported GI50 for "N#CCCN(CCC#N)c1ccc(/C=C(/NC(=O)c2cc([N+](=O)[O-])ccc2Cl)C(=O)N=[N+]=[N-])cc1" .
> 100 µM (inactive)

Give a short answer stating reported GI50 for CCOC(=O)C(Cc1cccn1C(=O)OC(C)(C)C)[N+](=O)[O-] (stereo not given) .
31.7 µM (inactive)

Give a short answer stating reported GI50 for "Oc1ccc(SCc2ccc(NCc3ccccc3)cc2)cc1" .
37.8 µM (inactive)

Give a short answer stating reported GI50 for "COc1nc(C#CCCCC#N)nc(OC)n1" .
21.2 µM (inactive)

Give a short answer stating reported GI50 for "COc1ccc(/C=C/C(=O)c2sc(-n3nc(-c4ccccc4)cc3-c3ccccc3)nc2C)cc1OC" .
31.4 µM (inactive)

Give a short answer stating reported GI50 for C[N+]1(CC[N+]2(C)CCCC2c2cccnc2)CCCC1c1cccnc1 (stereo not given) .
> 100 µM (inactive)

Give a short answer stating reported GI50 for "O=C1c2c(O)cccc2Cc2cc(CO)cc(O)c21" .
2.74 µM (inactive)

Give a short answer stating reported GI50 for CC1=CCN(c2ccccn2)OC1c1ccccc1 (stereo not given) .
> 100 µM (inactive)

Give a short answer stating reported GI50 for "O=C(Nc1cccc([N+](=O)[O-])c1)/C(=N\NC(=O)c1ccncc1)c1nc2ccc([N+](=O)[O-])cc2nc1O" .
50.1 µM (inactive)

Give a short answer stating reported GI50 for C[C@H](NC(=O)C(C)(Cc1ccc(O)cn1)NC(=O)c1ccccc1)c1ccccc1 (stereo not given in full) .
> 100 µM (inactive)

Give a short answer stating reported GI50 for "COc1ccc(OC)c(CSc2ccc(OC)c(OC)c2)c1" .
> 95.3 µM (inactive)

Give a short answer stating reported GI50 for CCOC(=O)C1=C(OC(OCC)C(C)[Se]c2ccccc2)CCC1 (stereo not given) .
16 µM (inactive)

Give a short answer stating reported GI50 for COc1ccc(NC2CC(C)N(C(=O)c3ccccc3)O2)cc1 (stereo not given) .
> 10 µM (inactive)

Give a short answer stating reported GI50 for COC(=O)C(COC(=O)/C=C/c1ccc(OC(C)=O)c(OC(C)=O)c1)NC(=O)/C=C/c1ccc(OC(C)=O)c(OC(C)=O)c1 (stereo not given) .
30.4 µM (inactive)

Give a short answer stating reported GI50 for "O=C(CCSC1=NCCCN1)c1ccc(F)cc1" .
31.9 µM (inactive)

Give a short answer stating reported GI50 for "CN(C)Cc1c[nH]c2ncnc(O)c12" .
29 µM (inactive)

Give a short answer stating reported GI50 for "CC1=CC(=O)C(=CN2C(=O)/C(=C\c3cccnc3)NC2=S)C(=O)O1" .
> 100 µM (inactive)

Give a short answer stating reported GI50 for COc1ccccc1OCC(COC(=O)Nc1ccc(C)cc1)OC(=O)Nc1ccc(C)cc1 (stereo not given) .
17 µM (inactive)

Give a short answer stating reported GI50 for "COc1ccc(NC(=O)CSC(=O)c2ccccc2)c(SCCSSCCSc2cc(OC)ccc2NC(=O)CSC(=O)c2ccccc2)c1" .
> 100 µM (inactive)

Give a short answer stating reported GI50 for CN1CCc2ccccc2C1Cc1ccccc1NC(=O)c1sc2ccccc2c1Cl (stereo not given) .
> 100 µM (inactive)

Give a short answer stating reported GI50 for "O=C1/C(=C/c2cccc([N+](=O)[O-])c2)COc2ccc(Br)cc21" .
> 100 µM (inactive)

Give a short answer stating reported GI50 for CC(C)N(C(C)C)P(OCCC#N)OC1CC(n2cnc3c(=O)[nH]cnc32)OC1COC(=O)NCCCCCCNC(=O)OC(C)(C)c1ccc(-c2ccccc2)cc1 (stereo not given) .
34.4 µM (inactive)
